Assay: yeast display, Sf9 membrane polyspecificity reagent, FACS + sequencing; frameworks hold sequencing errors
measure: polyreactivity (PSR sort gate)

Worked cases, answers included:
[[record]]
primary_sequence = "QDQLVESGGGLVQAGGSLRLSCAASGSIFYVNTMGWYRQAHGKERELVADISSGDSTYYADSVKGRFTISRDNAKNTVYLQMNSLKPEDTAVYYCIADVYSWVSGKEGDYWGQGTQVTVSS"
measure = "polyreactivity (PSR sort gate)"
result = "low polyreactivity"

[[record]]
primary_sequence = "QVQLVESGGGLVQAGGSLRLSCAASGRIFPPNAMGWSRQAPGKERELVAAITRGGSTYYADSVKGRFTISRDNAKNTVYLQMNSLKPEDTAVYYCATVPWYIKVGQKRNDYWGQGTQVTVSS"
measure = "polyreactivity (PSR sort gate)"
result = "high polyreactivity"

[[record]]
primary_sequence = "QVQLVESGGGLDQAGGSLRLSCAASGSIFDPYAMGWYRPAPGKEREFVAVISKGGTNTYYADSVKGRFTISRDNAKNTVYLQMNSLKPEDTAGYYCAARVDTYRAKYYYWRQGTQVTVSS"
measure = "polyreactivity (PSR sort gate)"
result = "high polyreactivity"

[[record]]
primary_sequence = "QVQLVESGGGLVQAGASLRLSCAASGSTYVRNAMGWYRQAPGKERELVAAITSGGNTYADSVKGRFTISRDNAKNTVYLQMNSLKPEDTAVYYSAAANEFGDVWAQFDYWGQGTQVTVSS"
measure = "polyreactivity (PSR sort gate)"
result = "low polyreactivity"


Shift focus to the following entry.
I would be grateful if you could share the reported polyreactivity (PSR sort gate) for QVQLVESGGGLVEAGGSLRLSCAASGRTFGTYPMGWYRQAPGKERELVAAISSRGGTTYYADSVKGRFTISRDNAKNTVYLQMNSLKPEDTEVYYCARASWSITTVLSTMDYWGQGTQVTVSS .
high polyreactivity

Values from the nanobody polyreactivity screen of Harvey et al. (2022)
